target: PIM-1 (Homo sapiens, UniProt P11309)
Sequence (P11309 whole entry, species assumed): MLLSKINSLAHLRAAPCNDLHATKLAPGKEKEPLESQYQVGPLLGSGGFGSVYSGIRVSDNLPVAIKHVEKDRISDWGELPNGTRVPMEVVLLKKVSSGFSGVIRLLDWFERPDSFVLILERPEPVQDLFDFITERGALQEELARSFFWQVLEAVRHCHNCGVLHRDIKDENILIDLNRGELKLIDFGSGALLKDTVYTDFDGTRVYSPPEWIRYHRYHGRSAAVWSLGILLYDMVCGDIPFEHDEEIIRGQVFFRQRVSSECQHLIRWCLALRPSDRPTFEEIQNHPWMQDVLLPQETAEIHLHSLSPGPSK
pIC50: −log10 of the molar value. Counter-ions that a name gives are not always drawn.
If the reported pIC50 equals or exceeds 9, assign met. If not, assign not met.

COc1cccc2ccc(-c3nnc4ccc([C@@H](N5CC[C@H](NCCF)C5)C(F)(F)F)cn34)nc12 [Example 80, dihydrochloride]    not met
CSCCOc1ccc2ccc(-c3nnc4ccc([C@@H](N5CC[C@H](N)C5)C(F)(F)F)cn34)nc2c1 [Example 281, hydrochloride]    met

[in] Evaluate OCC1(c2cc(F)cc3ccc(-c4nnc5ccc([C@@H](N6CC[C@H](O)C6)C(F)(F)F)cn45)nc23)CC1 [Example 126, hydrochloride] : pIC50 at minimum 9?
[out] met

[in] Hi, just wondering whether COc1cc2nc(-c3nnc4ccc([C@@H](N5C[C@@H](N)[C@@H](O)C5)C(F)(F)F)cn34)ccc2cc1F [Example 131, dihydrochloride] shows pIC50 of 9 or higher.
[out] not met

[in] Hello, I need to know if COc1cc(F)cc2ccc(-c3nnc4ccc([C@@H](N5CC[C@H](N)C5)C(F)(F)F)cn34)nc12 [Example 115, hydrochloride] has measured pIC50 not below 9. Thanks!
[out] met

[in] Textbook exercise: given the entry Cn1cc(-c2ccc3ccc(-c4nnc5ccc([C@H](N6CC[C@](C)(N)C6)C(F)(F)F)cn45)nc3c2)cn1 [Example 222, dihydrochloride] , state whether its pIC50 is greater than or equal to 9.
[out] met

[in] Could you tell me if the measured pIC50 of COc1cc2nc(-c3nnc4ccc([C@@H](N5C[C@@H](N)[C@@H](F)C5)C(F)(F)F)cn34)ccc2cc1F [Example 210, dihydrochloride] reaches 9 or more?
[out] not met

[in] Does COCCOc1cc2nc(-c3nnc4ccc([C@@H](N5CC[C@H](N)C5)C(F)(F)F)cn34)ccc2cc1F [Example 120, hydrochloride] have a reported pIC50 of at least 9?
[out] met

[in] Reported pIC50 reaches at least 9 for COCC1(c2cccc3ccc(-c4nnc5ccc([C@@H](N6CC[C@H](N)C6)C(F)(F)F)cn45)nc23)CC1 [Example 112, dihydrochloride] ?
[out] met

[in] Answer whether pIC50 of CC(c1ccc2nnc(-c3ccc4cccc(C(C)(C)C)c4n3)n2c1)N1CC[C@H](N)C1 (stereo partly shown) [Example 17, trihydrochloride] is greater than or equal to 9.
[out] met

----------
molecular target: GST-tagged recombinant full-length human Pim-2 (Homo sapiens, UniProt Q9P1W9); construct: GST-tagged recombinant full-length human Pim-2; GST; experiment: PIM-2 Assay (as Example A); conditions: averaged IC50; 4 μM ATP, 1.0 μM PIM2tide, 1.5 nM Pim-2
Sequence (Q9P1W9 whole entry): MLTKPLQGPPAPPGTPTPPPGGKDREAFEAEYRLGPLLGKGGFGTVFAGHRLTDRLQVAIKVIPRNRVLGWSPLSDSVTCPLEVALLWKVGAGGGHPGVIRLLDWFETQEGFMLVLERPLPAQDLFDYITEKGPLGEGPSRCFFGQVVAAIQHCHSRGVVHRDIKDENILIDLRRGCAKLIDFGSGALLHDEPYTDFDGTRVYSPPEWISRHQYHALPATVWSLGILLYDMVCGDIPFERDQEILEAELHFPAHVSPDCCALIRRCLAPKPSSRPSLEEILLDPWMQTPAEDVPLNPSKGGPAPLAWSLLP
Structures can show the parent of a compound that is named as a salt.
Hi! Just check whether IC50 is below 40 nM. Below gives TRUE, equal or above gives FALSE.

Example results:
CC(C)Oc1cccc2ccc(-c3nnc4ccc([C@@H](N5CC[C@H](N)C5)C(F)(F)F)cn34)nc12 [Example 31, dihydrochloride]    TRUE
CC1(N)CCN(C(c2ccc3nnc(-c4ccc5cccc(O)c5n4)n3c2)C(F)(F)F)C1 (stereo not drawn) [Example 28, dihydrochloride]    FALSE
N[C@H]1CCN([C@H](c2ccc3nnc(-c4ccc5cccc(C(F)(F)F)c5n4)n3c2)C(F)(F)F)C1 [Example 161, dihydrochloride]    FALSE
N[C@@H]1CCN([C@@H](c2ccc3nnc(-c4ccc5cccc(OCC6CC6)c5n4)n3c2)C(F)(F)F)C1 (single isomer, unassigned)    FALSE
COCCc1cccc2ccc(-c3nnc4ccc([C@@H](N5CC[C@H](N)C5)C(F)(F)F)cn34)nc12 [Example 111, dihydrochloride]    FALSE

[in] Is 40 nM strictly greater than the compound's reported IC50? compound: COCC(C)(C)c1cccc2ccc(-c3nnc4ccc([C@@H](N5CC[C@H](N)C5)C(F)(F)F)cn34)nc12 [Example 105, dihydrochloride]
[out] TRUE

[in] Please check: IC50 for CCC(C)(C)NC(=O)c1ccc2ccc(-c3nnc4ccc([C@@H](N5CC[C@@H](N)C5)C(F)(F)F)cn34)nc2c1 [Example 59, dihydrochloride] , strictly under 40 nM or not?
[out] FALSE

[in] Lab note: IC50 threshold 40 nM. Does this compound come in strictly under it? "Cc1c(C(=O)NC(C)C)ccc2ccc(-c3nnc4ccc([C@@H](N5CC[C@H](N)C5)C(F)(F)F)cn34)nc12"
[out] FALSE

[in] Input CCC1(N)CCN([C@H](c2ccc3nnc(-c4ccc5cccc(OC)c5n4)n3c2)C(F)(F)F)C1 (single isomer, unassigned; diastereomer 2) [Example 252, dihydrochloride] ; condition: IC50 strictly below 40 nM. Does it hold?
[out] FALSE

[in] Hello, I'm reviewing records and need to know if IC50 of "COCCOc1ccc2cc(F)c(-c3nnc4ccc([C@@H](N5CC[C@H](N)C5)C(F)(F)F)cn34)nc2c1" is below 40 nM. Could you check?
[out] FALSE

[in] Determine if CC1(NC(=O)c2ccc3ccc(-c4nnc5ccc([C@@H](N6CC[C@@H](N)C6)C(F)(F)F)cn45)nc3c2)CC1 [Example 55, dihydrochloride] shows IC50 strictly lower than 40 nM.
[out] TRUE

[in] Check if IC50 falls below 40 nM for CC(C)(O)Cc1cc2nc(-c3nnc4ccc([C@@H](N5CC[C@H](N)C5)C(F)(F)F)cn34)ccc2cc1F [Example 236, dihydrochloride] .
[out] FALSE

----------
molecular target: GST-tagged recombinant full-length human Pim-2 (Homo sapiens, UniProt Q9P1W9); construct: GST-tagged recombinant full-length human Pim-2; GST; experiment: PIM-2 Assay (as Example A); conditions: averaged IC50; 4 μM ATP, 1.0 μM PIM2tide, 1.5 nM Pim-2
Counter-ions that a name gives are not always drawn.
endpoint: IC50

Worked examples follow.
CO[C@H](C)COc1cc2nc(-c3nnc4ccc([C@H](N5CC[C@](C)(N)C5)C(F)(F)F)cn34)ccc2cc1F [Example 324, di-hydrochloride]    44.6 nM
N[C@H]1CCN([C@H](c2ccc3nnc(-c4ccc5ccc(OC(F)(F)F)cc5n4)n3c2)C(F)(F)F)C1 [Example 239, dihydrochloride]    > 1000 nM
COCCOc1ccc2ccc(-c3nnc4ccc([C@@H](N5CC[C@H](N)C5)C(F)(F)F)cn34)nc2c1 [Example 148, dihydrochloride]    > 100 nM
N[C@H]1CCN([C@H](c2ccc3nnc(-c4ccc5cc(F)cc(OCCCO)c5n4)n3c2)C(F)(F)F)C1 [Example 229, dihydrochloride]    55 nM
N[C@H]1CCN([C@H](c2ccc3nnc(-c4ccc5cccc(C6CC6)c5n4)n3c2)C(F)(F)F)C1 [Example 39, dihydrochloride]    18 nM

[in] Look up and report measured IC50 for this entry: CC(=O)N[C@H]1CCN(C(c2ccc3nnc(-c4ccc5cccc(OCC6CC6)c5n4)n3c2)C(F)(F)F)C1 (stereo partly shown)
[out] > 100 nM

[in] Identify IC50 associated with the compound COc1c(F)cc2ccc(-c3nnc4ccc([C@@H](N5CC[C@H](N)C5)C(F)(F)F)cn34)nc2c1F [Example 178, dihydrochloride]
[out] > 100 nM

[in] Recall and state the measured IC50 for COCC1(c2cc3nc(-c4nnc5ccc([C@@H](N6CC[C@H](N)C6)C(F)(F)F)cn45)ccc3cc2F)CC1 [Example 165, dihydrochloride] .
[out] > 100 nM

[in] Query IC50 for "CC(C)(C)C(=O)OCCOc1cc2nc(-c3nnc4ccc([C@@H](N5CC[C@H](N)C5)C(F)(F)F)cn34)ccc2cc1F"
[out] > 1000 nM

[in] Look up and report measured IC50 for this entry: Cn1cc(-c2ccc3ccc(-c4nnc5ccc([C@H](N6CCC(C)(O)C6)C(F)(F)F)cn45)nc3c2)cn1 (single isomer, unassigned; diastereomer 1) [Example 200]
[out] 137 nM

----------
target: recombinant rat PIM-3 (Rattus norvegicus); assay: PIM-3 Assay (as Example A); conditions: averaged IC50; 30 μM ATP, 3.75 μM PIM2tide, 0.5 nM PIM-3
Structures can show the parent of a compound that is named as a salt.
Criterion: IC50 strictly less than 2 nM. Met: Yes. Not met: No.

N[C@@H]1CCN([C@H](c2ccc3nnc(-c4ccc5cccc(C6CC6)c5n4)n3c2)C(F)(F)F)C1 [Example 47, dihydrochloride]    No
CC(C)Oc1cc(F)cc2ccc(-c3nnc4ccc([C@H](N5CCC(C)(O)C5)C(F)(F)F)cn34)nc12 (single isomer, unassigned; diastereomer 1) [Example 202, hydrochloride]    No
N[C@H]1CCN([C@H](c2ccc3nnc(-c4ccc5cccc(C(F)(F)F)c5n4)n3c2)C(F)(F)F)C1 [Example 161, dihydrochloride]    Yes
COc1cccc2ccc(-c3nnc4ccc([C@@H](N5CC[C@H](N)C5)C(F)(F)F)cn34)nc12 [Example 9, dihydrochloride]    No

[in] Please let me know if CC(C)Oc1cccc2ccc(-c3nnc4ccc([C@@H](N5CC[C@@](N)(CF)C5)C(F)(F)F)cn34)nc12 (single isomer, unassigned) [Example 154, dihydrochloride] shows IC50 below 2 nM.
[out] No

[in] Could you please tell me whether IC50 recorded for CO[C@H](C)COc1ccc2cc(F)c(-c3nnc4ccc([C@@H](N5CC[C@H](N)C5)C(F)(F)F)cn34)nc2c1 [Example 328] is less than 2 nM?
[out] Yes

[in] Please state whether IC50 is below 2 nM for N[C@H]1CCN([C@H](c2ccc3nnc(-c4ccc5cc(F)cc(C6CC6)c5n4)n3c2)C(F)(F)F)C1 [Example 177, dihydrochloride]
[out] Yes

[in] Determine whether this molecule shows IC50 lower than 2 nM (ties excluded): N[C@@H]1CCN([C@@H](c2ccc3nnc(-c4ccc5cccc(C6CC6)c5n4)n3c2)C(F)(F)F)C1 [Example 56]
[out] No

[in] Lab log: compare recorded IC50 with 2 nM; is it strictly lower for O[C@@H]1CN([C@H](c2ccc3nnc(-c4ccc5cccc(C6CC6)c5n4)n3c2)C(F)(F)F)C[C@H]1O [Example 78] ?
[out] No

[in] Could you please tell me whether IC50 recorded for N[C@H]1CCN([C@H](c2ccc3nnc(-c4ccc5cc(F)c(OCC6CC6)cc5n4)n3c2)C(F)(F)F)C1 [Example 134, hydrochloride] is less than 2 nM?
[out] Yes

[in] Check if IC50 falls below 2 nM for CC(C)Oc1cc(F)cc2ccc(-c3nnc4ccc([C@H](N5CC[C@H](N)C5)C(F)(F)F)cn34)nc12 [Example 135, hydrochloride] .
[out] No

[in] Hello, is IC50 of the following molecule strictly smaller than 2 nM? COc1cc2nc(-c3nnc4ccc([C@@H](N5C[C@@H](N)[C@H](F)C5)C(F)(F)F)cn34)ccc2cc1F [Example 211, dihydrochloride]
[out] No

The measured values listed here are drawn from patent US8889704B2.
